MEASURED TARGET: acetylcholine receptor
TEST METHOD NOTES: SPR, AchR immobilized on CM5 chip, peptide 10 µM
READOUT LABEL: Binding affinity (RU)

KRLLRR [6mer-2-225]
145
KSILRR [6mer-2-213]
142
KSQQKR [6mer-2-256]
142
KRFCRK [6mer-2-257]
144
RLYYRR [6mer-2-215]
123
RGLRKR [6mer-2-249]
136
KSFQRK [6mer-2-205]
147
KGYQKK [6mer-2-247]
146
RGLSRR [6mer-2-211]
135
KGVSKK [6mer-2-218]
147
RQICKK [6mer-2-268]
139
RWYTKK [6mer-2-261]
121
KLVRKK [6mer-2-235]
136
KQLTRR [6mer-2-223]
142
KWQLRR [6mer-2-212]
148
RWIQRR [6mer-2-230]
135
RGVSKR [6mer-2-219]
153
RSYTRR [6mer-2-248]
154
KGISKK [6mer-2-231]
144
KWQQKK [6mer-2-236]
131
KGQCKK [6mer-2-228]
141
KLQRRK [6mer-2-227]
147
RRQTRK [6mer-2-265]
135
KWRQKR [6mer-2-233]
190
KWILKR [6mer-2-262]
142
RRFCKR [6mer-2-260]
142
KQVRKK [6mer-2-221]
153
KGILKK [6mer-2-216]
126
KWQYKK [6mer-2-206]
148
KRIYRR [6mer-2-258]
125
KLFQKK [6mer-2-217]
135
RLIYKK [6mer-2-202]
122
RRFSKR [6mer-2-244]
139

Recorded values, source patent US20250011363A1.
